Reference for the values: patent US7135578B2

system.name: β-N-acetylglucosaminidase
experiment.description: Inhibition of β-N-acetylglucosaminidase, kinetic analysis by CZE
Assay type: biochemical
test.conditions: β-N-acetylglucosaminidase from bovine kidney, substrate PNP-GlcNAc, replot of Lineweaver-Burk slopes
recorded.metric: Ki

Ask: Provide the documented Ki with β-N-acetylglucosaminidase as the system for CC(=O)NC[C@@H]1[C@@H](O)[C@H](O)[C@@H](CO)N1C [Compound 4]
Result: 0.11 µM

----------
system.name: β-N-acetylhexosaminidase A (Homo sapiens, UniProt P06865+P07686)
Sequence (P06865 89-529): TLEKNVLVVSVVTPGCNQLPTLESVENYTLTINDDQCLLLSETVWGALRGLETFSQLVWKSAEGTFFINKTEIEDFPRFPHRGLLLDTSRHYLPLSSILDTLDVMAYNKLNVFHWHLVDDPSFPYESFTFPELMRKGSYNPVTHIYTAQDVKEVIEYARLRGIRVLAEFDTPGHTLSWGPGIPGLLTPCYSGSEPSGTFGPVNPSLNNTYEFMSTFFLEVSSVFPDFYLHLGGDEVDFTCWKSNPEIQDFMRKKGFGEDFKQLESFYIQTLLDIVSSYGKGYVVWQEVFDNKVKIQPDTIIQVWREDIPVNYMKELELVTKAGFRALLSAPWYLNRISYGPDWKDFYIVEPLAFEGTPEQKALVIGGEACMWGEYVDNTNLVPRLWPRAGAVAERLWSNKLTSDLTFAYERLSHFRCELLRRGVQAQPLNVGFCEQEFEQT
Sequence (P06865 23-74 limits assumed): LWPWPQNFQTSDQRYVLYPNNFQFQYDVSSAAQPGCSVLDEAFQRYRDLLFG
Sequence (P07686 315-556 limits assumed): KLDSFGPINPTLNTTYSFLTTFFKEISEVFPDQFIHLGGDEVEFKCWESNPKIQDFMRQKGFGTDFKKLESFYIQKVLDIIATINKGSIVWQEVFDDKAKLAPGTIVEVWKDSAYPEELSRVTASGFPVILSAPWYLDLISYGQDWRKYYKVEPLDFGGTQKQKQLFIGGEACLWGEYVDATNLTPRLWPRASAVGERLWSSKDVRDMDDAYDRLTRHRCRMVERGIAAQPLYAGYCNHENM
Sequence (P07686 122-311 limits assumed): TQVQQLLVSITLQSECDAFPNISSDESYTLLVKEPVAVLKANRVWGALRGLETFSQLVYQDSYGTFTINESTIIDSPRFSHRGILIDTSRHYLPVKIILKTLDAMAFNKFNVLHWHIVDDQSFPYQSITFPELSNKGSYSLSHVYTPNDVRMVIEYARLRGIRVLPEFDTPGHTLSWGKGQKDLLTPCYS
Sequence (P07686 50-107 limits assumed): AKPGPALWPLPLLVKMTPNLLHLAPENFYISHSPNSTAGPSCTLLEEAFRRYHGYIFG
experiment.description: Inhibition of β-N-acetylhexosaminidase A from human placenta
test.conditions: β-N-acetylhexaoaminidases A from human placenta
recorded.metric: Ki (nM)
Enter your answer as a number in nM; do not include the unit.

Ask: Can you share its Ki? I mean this molecule: CC(=O)NC[C@@H]1[C@@H](O)[C@H](O)[C@@H](CO)N1C
Result: 24
